Data provenance: patent US11083725B2

Quick reference for 590 nm absorbance normalized to zero hour (substrate use), 11 hr among some molecules
- System: NHBE cells
- assay comment: Biolog metabolic array: substrate use by NHBE cells with or without CA09 infection
- Assay type: cell-based, human
- test context: Virus (CA09-infected, MOI 1) NHBE cells, 11 hr
Reply briefly: the number, and no unit.

Below, each entry is followed by its recorded 590 nm absorbance normalized to zero hour (substrate use), 11 hr result.
molecule: O=C[C@H](O)[C@@H](O)[C@H](O)[C@H](O)C(=O)O [D-Glucuronic Acid]
obs value: 3.99

molecule: O=C(CO)[C@@H](O)[C@@H](O)[C@H](O)CO [Tagatose]
obs value: 0.48

molecule: CO[C@@H]1OC[C@@H](O)[C@H](O)[C@H]1O [b-Methyl-D-Xyloside]
obs value: 4.01

molecule: NCCO [2-Aminoethanol]
obs value: 3.78

molecule: OC[C@H]1O[C@@H](O[C@@H]2[C@@H](CO)OC(O)(CO)[C@H]2O)[C@H](O)[C@@H](O)[C@H]1O (mixture of isomers) [Lactulose]
obs value: 4.63

molecule: OCc1ccccc1O[C@@H]1O[C@H](CO)[C@@H](O)[C@H](O)[C@H]1O [Salicin]
obs value: 2.62

molecule: O=P(O)(O)OC[C@H](O)CO (racemic) [D,L-a-Glycerol Phosphate]
obs value: 5.62

molecule: CC(O)CO (stereo not shown) [1,2-Propanediol]
obs value: 4.75

With those in mind, consider the next molecule.
Ask | Lab note: need 590 nm absorbance normalized to zero hour (substrate use), 11 hr for O=C[C@H](O)[C@@H](O)[C@@H](O)CO [L-Arabinose] on NHBE cells, anyone have it?
Reply | 4.78

====

Form field: 590 nm absorbance normalized to zero hour (substrate use), 3 hr (one value per entry).
- Test system: NHBE cells
- assay comment: Biolog metabolic array: substrate use by NHBE cells with or without CA09 infection
- Type: cell-based, human
- test context: Virus: CA09-infected NHBE cells, MOI 1; Biolog PMM2; 3 hr
Number only, please.

Reference set, count: 2
compound: OC[C@H]1OC(O)[C@@H](O)[C@@H](O)[C@@H]1O (stereo partly drawn)
obs value: 2.68
//
compound: O=C[C@H](O)[C@@H](O)[C@@H](O)CO
obs value: 3.01

Shifting focus to the compound that follows.
Ask | // lookup 590 nm absorbance normalized to zero hour (substrate use), 3 hr for NCCCC(=O)O
Reply | 2.83

====

- Tested on: NHBE cells
- assay comment: Biolog metabolic array: substrate use by NHBE cells with or without CA09 infection
- Format: cell-based, human
- test context: Control (uninfected) NHBE cells, 8 hr
metric: 590 nm absorbance normalized to zero hour (substrate use), 8 hr
Lab note: record the figure alone, no unit after it.

Below: 4 compounds and their reported 590 nm absorbance normalized to zero hour (substrate use), 8 hr.
compound: C[C@H](O)[C@H](O)[C@@H](O)[C@@H](O)C=O
obs value: 2.01

compound: CC(=O)N[C@H]1C(O)O[C@H](CO)[C@@H](O)[C@@H]1O (some centres unmarked)
obs value: 0.48

compound: NCCCC(=O)O
obs value: 1.09

compound: O=C(O)C[C@@H](O)C(=O)O
obs value: 3.00

Proceeding to the next compound to report its 590 nm absorbance normalized to zero hour (substrate use), 8 hr.
Ask | For the compound CCCCCC(=O)O , what 590 nm absorbance normalized to zero hour (substrate use), 8 hr is on record?
Reply | 4.11

====

- Test system: NHBE cells
- assay comment: Biolog metabolic array: substrate use by NHBE cells with or without CA09 infection
- Format: cell-based, human
- test context: Virus: CA09-infected NHBE cells, MOI 1; Biolog PMM2; 9 hr
Would you mind labelling by 590 nm absorbance normalized to zero hour (substrate use), 9 hr? At or over 1 is Criterion met, under is Criterion not met.

compound: O=C(O)CCC(=O)C(=O)O [a-Keto-Glutaric Acid]
cat: Criterion not met

Ask | Given OC[C@H]1O[C@@H](O[C@@H]2[C@@H](CO)OC(O)(CO)[C@H]2O)[C@H](O)[C@@H](O)[C@H]1O (mixture of isomers) [Lactulose] , state whether its 590 nm absorbance normalized to zero hour (substrate use), 9 hr is at least 1.
Reply | Criterion met

Ask | Given CO[C@@H]1OC[C@@H](O)[C@H](O)[C@H]1O [b-Methyl-D-Xyloside] , state whether its 590 nm absorbance normalized to zero hour (substrate use), 9 hr is at least 1.
Reply | Criterion met

Ask | Does O=C(CO)[C@@H](O)[C@@H](O)[C@H](O)CO [D-Tagatose] have a reported 590 nm absorbance normalized to zero hour (substrate use), 9 hr of at least 1?
Reply | Criterion not met

Ask | 590 nm absorbance normalized to zero hour (substrate use), 9 hr >= 1 for OC[C@H]1O[C@H](OC[C@H]2O[C@H](OC[C@H]3O[C@H](O[C@]4(CO)O[C@H](CO)[C@@H](O)[C@@H]4O)[C@H](O)[C@@H](O)[C@@H]3O)[C@H](O)[C@@H](O)[C@H]2O)[C@H](O)[C@@H](O)[C@H]1O [Stachyose] ?
Reply | Criterion met

Ask | # bool: 590 nm absorbance normalized to zero hour (substrate use), 9 hr of COC(=O)[C@@H](C)O [Methyl D-Lactate] >= 1
Reply | Criterion met

Ask | Does OC[C@H]1O[C@H](OC[C@H]2O[C@H](O[C@]3(CO)O[C@H](CO)[C@@H](O)[C@@H]3O)[C@H](O)[C@@H](O)[C@@H]2O)[C@H](O)[C@@H](O)[C@H]1O [D-Raffinose] have a reported 590 nm absorbance normalized to zero hour (substrate use), 9 hr of at least 1?
Reply | Criterion met

Ask | Reported 590 nm absorbance normalized to zero hour (substrate use), 9 hr reaches at least 1 for O=C(O)CCC(=O)O [Succinic Acid] ?
Reply | Criterion met

Ask | Check the entry NCCCC(=O)O [g-Amino Butyric Acid] : does 590 nm absorbance normalized to zero hour (substrate use), 9 hr equal or exceed 1?
Reply | Criterion met

Ask | Could you verify whether the entry OC[C@@]12OC[C@@H](O1)[C@@H](O)[C@@H](O)[C@@H]2O [Sedoheptulosan] shows 590 nm absorbance normalized to zero hour (substrate use), 9 hr of no less than 1?
Reply | Criterion met

Ask | // inclusive: 590 nm absorbance normalized to zero hour (substrate use), 9 hr at least 1? input: CCC(=O)O [Propionic Acid]
Reply | Criterion met

Ask | State whether the measured 590 nm absorbance normalized to zero hour (substrate use), 9 hr reaches 1, counting equality as reaching it, for Nc1ncnc2c1ncn2[C@@H]1O[C@H](CO)[C@@H](O)[C@H]1O [Adenosine]
Reply | Criterion met

Ask | Would you say O=C(CO)[C@@H](O[C@H]1O[C@H](CO)[C@@H](O)[C@H](O)[C@H]1O)[C@H](O)[C@H](O)CO [Turanose] shows 590 nm absorbance normalized to zero hour (substrate use), 9 hr at minimum 1?
Reply | Criterion not met

Ask | Given the entry CC[C@H](O)C(=O)O (racemic) [D,L-a-Hydroxy-Butyric Acid] , answer whether its 590 nm absorbance normalized to zero hour (substrate use), 9 hr meets or surpasses 1.
Reply | Criterion met

====

- Tested on: NHBE cells
- assay comment: Biolog metabolic array: substrate use by NHBE cells with or without CA09 infection
- Type: cell-based, human
- test context: Control (uninfected) NHBE cells, Biolog PMM2, 7 hr
Listing of entries alongside the reported Substrate use, 590 nm absorbance normalized to zero hour, 7 hr.
Lab note: jot the number down without any unit.

Below, each entry is followed by its recorded Substrate use, 590 nm absorbance normalized to zero hour, 7 hr result.
compound: OC[C@@H](O)[C@@H](O)CO
obs value: 3.78
//
compound: O=C[C@@H](O)[C@H](O)[C@H](O)CO
obs value: 1.04
//
compound: O=c1[nH]cnc2c1ncn2[C@@H]1O[C@H](CO)[C@@H](O)[C@H]1O
obs value: 6.19

Ask | Tell me the measured Substrate use, 590 nm absorbance normalized to zero hour, 7 hr of NCCO , please.
Reply | 1.07

Ask | Name the recorded Substrate use, 590 nm absorbance normalized to zero hour, 7 hr for CO[C@H]1O[C@H](CO)[C@H](O)[C@H](O)[C@H]1O [a-Methyl-D-Galactoside] .
Reply | 1.15

Ask | Quick one: Substrate use, 590 nm absorbance normalized to zero hour, 7 hr for OC[C@H]1O[C@H](OC[C@H]2O[C@H](OC[C@H]3O[C@H](O[C@]4(CO)O[C@H](CO)[C@@H](O)[C@@H]4O)[C@H](O)[C@@H](O)[C@@H]3O)[C@H](O)[C@@H](O)[C@H]2O)[C@H](O)[C@@H](O)[C@H]1O ?
Reply | 6.99

Ask | Sample OC[C@H]1O[C@@H](OC[C@H]2OC(O)[C@H](O)[C@@H](O)[C@@H]2O)[C@H](O)[C@@H](O)[C@@H]1O (stereo partly shown) — what was its Substrate use, 590 nm absorbance normalized to zero hour, 7 hr?
Reply | 4.35
